Test system: RPE-1 (human retinal epithelium)
Experiment: Cell viability (resazurin) assay, 2D model, RPE-1
Format: cell-based
Conditions: 48 h incubation, noncancerous cell line, three independent experiments, read-out: IC50 ± SEM, RPE-1
Property name: IC50

# example entries with known answers
[
  {
    "Molecule": "N.[O]=[Re](=[O])(=[O])[OH] [(NH4)[ReO4]]",
    "Experimental target": "RPE-1 (human retinal epithelium)",
    "IC50": "> 100 µM"
  },
  {
    "Molecule": "[Cl][Cu][Cl]",
    "Experimental target": "RPE-1 (human retinal epithelium)",
    "IC50": "> 100 µM"
  }
]

Kindly review the next molecule as well.
Consider the molecule shown here: N.N.[Cl][Pt][Cl] [cisplatin] What is its recorded IC50?
22.6 µM

Hello, the source for this data is paper PMC11445722, in case you need it.
